Test system: MOLT-4 leukemia
assay info: NCI tumour cell line growth inhibition, 48 h; in the data active = GI50 below about 0.43 µM; inactive = the rest
Please answer using one outcome listed in true = active, false = inactive

INSERT INTO results (compound, class_label) VALUES
  ('O=C(CC1(O)C(=O)Nc2ccc(F)cc21)c1ccc(C(=O)NCC2CCC3(CC2)OOC2(CCCCC2)OO3)cc1 (stereo not given)', 'false'),
  ('C=C1C(=O)O[C@H]2[C@H]1CC/C(Cn1cc(-c3ccc(N)cc3)nn1)=C\CC[C@@]1(C)O[C@@H]21', 'false');

Which result was noted for this compound in the test: COc1cc(C2=NN(C(C)=O)C(c3cc(OC)c(OC)c(OC)c3)C2)ccc1O (stereo not given)
true

Similarly, "CCCCCCNCCCNc1c2cc(OC)ccc2nc2cccc([N+](=O)[O-])c12" ?
true

Similarly, "COc1cc([C@@H]2c3cc4c(cc3[C@H](OC(C)=O)[C@H]3COC(=O)[C@@H]23)OCO4)cc(OC)c1OC" ?
false

###

Test system: U251 CNS
assay info: NCI tumour cell line growth inhibition, 48 h
parameter: TGI

Consider the reported TGI for these molecules:
INSERT INTO results (molecule, measured) VALUES
  ('CC12CCCCC1=C(F)C(F)(F)S2 (configuration not stated)', '> 100 µM'),
  ('COc1c2c(nc3ccccc13)-c1cc(C(CC(=O)OC(C)(C)C)C(=O)OC(C)C)c(CO)c(=O)n1C2 (configuration not stated)', '> 100 µM'),
  ('CC(=O)/C=C/c1ccc(Nc2c3ccccc3nc3occ(Cl)c23)cc1', '6.83 µM'),
  ('COc1cc([C@@H]2c3cc4c(cc3[C@H](OC(C)=O)[C@H]3COC(=O)[C@@H]23)OCO4)cc(OC)c1OC', '> 100 µM'),
  ('CCC(=O)N/S(=N/S(=O)(=O)c1ccccc1)C(Cl)(Cl)Cl (configuration not stated)', '> 100 µM'),
  ('CCCC(=O)N[C@H]1CCc2cc(OC)c(OC)c(OC)c2-c2ccc(SC)c(=O)cc21', '3.74 µM');

For the molecule shown here, "Cn1c(=Nc2ccc(Cl)cc2)sc2ccccc21" , give the reported TGI.
> 100 µM

Similarly, "COc1ccc(C2=[S+]C(c3ccccc3)(c3ccccc3)c3ccccc32)cc1" ?
45.3 µM

Similarly, "CN(C)CCCOc1cccc(NC2=C(Cl)C(=O)C(Nc3cccc(OCCCN(C)C)c3)=C(Cl)C2=O)c1" ?
2.97 µM

Similarly, "c1ccc2cc3c(NC4=NCCO4)cccc3cc2c1" ?
> 100 µM

Similarly, "O=C(/C=C1\Sc2ccccc2N=C1CC(=O)c1ccccc1)c1ccccc1" ?
18.2 µM

Similarly, "Nc1nc(N)c2cc(Sc3ccc4ccccc4c3)ccc2n1" ?
3.38 µM

###

Overview of recorded TGI for various compounds
Test system: NCI-H226 lung
assay info: NCI tumour cell line growth inhibition, 48 h

INSERT INTO results (compound, measured) VALUES
  ('O=[N+]([O-])c1ccc(C2ON=C(c3ccccc3)N2C23CC4CC(CC(C4)C2)C3)cc1 (stereo not given)', '> 10 µM'),
  ('CC(=O)/C=C/c1ccc(Nc2c3ccccc3nc3occ(Cl)c23)cc1', '21.7 µM'),
  ('N#CC1=C(N)N(/N=C/c2ccccc2)C(c2ccccc2)C1(C#N)C#N (stereo not given)', '37.2 µM');

For the compound shown here, "C=C(CN1CCc2c([nH]c3ccccc23)C1)c1ccc(C(=O)Nc2ccccc2N)cc1" , give the reported TGI.
10.1 µM

Similarly, "CCOc1cc(/C=C/C(=O)C(C(=O)/C=C/c2ccc(OC(=O)CNc3nc4ccccc4[nH]3)c(OCC)c2)C(=O)CNc2nc3ccccc3[nH]2)ccc1OC(=O)CNc1nc2ccccc2[nH]1" ?
5.67 µM

Similarly, "O=C1/C(=C\c2ccco2)Oc2ccccc21" ?
> 100 µM

Similarly, "C[C@H]1C2Cc3cc(O)ccc3[C@@]1(C)CCN2CCc1ccc(N)cc1" ?
> 100 µM

Similarly, "NC(=O)CSc1c2cc(O)ccc2nc2ccc(O)cc12" ?
> 10 µM

Similarly, "CN(Cc1ccc(F)cc1)c1ccc(CO)c(Cl)c1" ?
0.278 µM

Similarly, "c1ccc2cc3c(NC4=NCCO4)cccc3cc2c1" ?
> 100 µM

###

Test system: CAKI-1 renal
assay info: NCI tumour cell line growth inhibition, 48 h; in the data active = GI50 below about 0.43 µM; inactive = the rest
Please answer using one outcome listed in TRUE (active), FALSE (inactive)

INSERT INTO results (compound, class_label) VALUES
  ('CCOC(=O)c1ccc(NC(=O)NC2=NCCS2)cc1', 'FALSE'),
  ('COc1ccc(-c2cnnn2-c2nonc2-n2cccc2)cc1OC', 'FALSE'),
  ('CCOC(=O)c1sc(-c2ccc(OS(=O)(=O)C[C@]34CCC(CC3=O)C4(C)C)c(C=O)c2)nc1C', 'FALSE'),
  ('NC(=O)c1cccnc1', 'FALSE'),
  ('C=C1C(=O)O[C@H]2[C@H]1CC/C(COC(=O)N[C@H]1C[C@H](O[C@H]3C[C@](O)(C(=O)CO)Cc4c(O)c5c(c(O)c43)C(=O)c3c(OC)cccc3C5=O)O[C@@H](C)[C@H]1O)=C\CC[C@@]1(C)O[C@@H]21', 'FALSE'),
  ('CC(=O)/C=C/c1ccc(Nc2c3ccccc3nc3occ(Cl)c23)cc1', 'TRUE'),
  ('COc1cc([C@@H]2c3cc4c(cc3[C@H](OC(C)=O)[C@H]3COC(=O)[C@@H]23)OCO4)cc(OC)c1OC', 'FALSE'),
  ('CCCC1(CN2c3ccccc3Sc3ccc(Cl)cc32)CCN(CC)C1 (centres undefined)', 'FALSE');

Which result was noted for this compound in the test: COc1cccc(CNc2ncnc3c2ncn3C2OC(CO)C(O)C2O)c1O (centres undefined)
TRUE

Similarly, COc1cc(OCc2cccc(-c3ccccc3)c2C)cc(OC)c1CN1CCCCC1C(=O)NCCOCCOCCN (centres undefined) ?
FALSE

Similarly, "C=C(CN1CCc2c([nH]c3ccccc23)C1)c1ccc(C(=O)Nc2ccccc2N)cc1" ?
FALSE

Similarly, COc1cccc2c1C(=O)c1c(O)c3c(c(O)c1C2=O)C[C@@](O)(C(=O)COC(=O)c1ccccc1)C[C@@H]3OC1CC(N)C(O)C(C)O1 (some centres undefined) ?
FALSE

Similarly, CC(=O)OC(C(=O)[O][Sn]([CH3])([CH3])[CH3])c1ccccc1 (centres undefined) ?
FALSE

Similarly, CC(C)(C)[Si](C)(C)OC1[C@@H](CNC(N)=O)O[C@@H](n2cnc3c(NC(=O)Nc4ccccc4)ncnc32)[C@H]1O[Si](C)(C)C(C)(C)C (some centres undefined) ?
FALSE

###

Tested on: SF-295 CNS
assay info: NCI tumour cell line growth inhibition, 48 h; in the data active = GI50 below about 0.43 µM; inactive = the rest
Please answer using one outcome listed in active, inactive

Some solved cases for reference:
INSERT INTO measurements (compound, tgt, class_label) VALUES
  ('COc1cc([C@@H]2c3cc4c(cc3[C@H](OC(C)=O)[C@H]3COC(=O)[C@@H]23)OCO4)cc(OC)c1OC', 'SF-295 CNS', 'active'),
  ('CN(C)CCCOc1cccc(NC2=C(Cl)C(=O)C(Nc3cccc(OCCCN(C)C)c3)=C(Cl)C2=O)c1', 'SF-295 CNS', 'inactive'),
  ('Cn1c(=O)n(C)c2cc(CNCCNc3ccnc4cc(Cl)ccc34)ccc21', 'SF-295 CNS', 'inactive'),
  ('COc1cc(F)ccc1-c1cc(Nc2cc(CS(C)(=N)=O)ccn2)ncc1F (stereo unspecified)', 'SF-295 CNS', 'active');

Which result was noted for this compound in the test: "CC(=O)c1ccc2c(c1)N(CCCN1CCN(CCO)CC1)c1ccccc1S2"
inactive

Similarly, COc1cccc(CNc2ncnc3c2ncn3C2OC(CO)C(O)C2O)c1O (stereo unspecified) ?
active

###

Tested on: SF-295 CNS
assay info: NCI tumour cell line growth inhibition, 48 h
parameter: TGI

Consider the reported TGI for these compounds:
INSERT INTO measurements (compound, parameter, measured) VALUES
  ('Clc1ccc(/C=C/c2ccc3ccccc3n2)cc1', 'TGI', '6.8 µM'),
  ('Cc1ccc(/C=C2\NC(=S)NC2=O)cc1', 'TGI', '> 100 µM'),
  ('N#CC1=C(N)N(/N=C/c2ccccc2)C(c2ccccc2)C1(C#N)C#N (stereo unspecified)', 'TGI', '39.5 µM'),
  ('COc1cc([C@@H]2c3cc4c(cc3[C@H](OC(C)=O)[C@H]3COC(=O)[C@@H]23)OCO4)cc(OC)c1OC', 'TGI', '> 100 µM'),
  ('C#CCN(N=O)C(=O)ON1C(=O)CCC1=O', 'TGI', '> 100 µM');

Could you now consider this next compound?
Give recorded TGI with SF-295 CNS for the following compound: COC1(C2c3ccccc3CCN2C(=O)OC(C)(C)C)C(=O)C(c2ccccc2)=C1N(C)C (stereo unspecified)
> 100 µM
